System: HT-29 (human colon cancer)
Assay: SRB cytotoxicity assay, HT-29
Assay type: cell-based
Conditions: Homo sapiens, HT-29, mean ± standard error, read-out: IC50 against HT-29
PARAMETER MEASURED: pIC50
In simple prose, pIC50 is minus the logarithm base ten of a concentration in moles per litre.

Data request: Param item = CCCCCCCCCCCCCCCc1cccc(O)c1C(=O)O [AA, Anacardic acid, reference compound] ; retrieve measured pIC50.
Data returned: 4.22
